- ASSAYED_SYSTEM: Cytochrome P450 11B1, mitochondrial (Homo sapiens)
- Sequence (P15538 whole entry): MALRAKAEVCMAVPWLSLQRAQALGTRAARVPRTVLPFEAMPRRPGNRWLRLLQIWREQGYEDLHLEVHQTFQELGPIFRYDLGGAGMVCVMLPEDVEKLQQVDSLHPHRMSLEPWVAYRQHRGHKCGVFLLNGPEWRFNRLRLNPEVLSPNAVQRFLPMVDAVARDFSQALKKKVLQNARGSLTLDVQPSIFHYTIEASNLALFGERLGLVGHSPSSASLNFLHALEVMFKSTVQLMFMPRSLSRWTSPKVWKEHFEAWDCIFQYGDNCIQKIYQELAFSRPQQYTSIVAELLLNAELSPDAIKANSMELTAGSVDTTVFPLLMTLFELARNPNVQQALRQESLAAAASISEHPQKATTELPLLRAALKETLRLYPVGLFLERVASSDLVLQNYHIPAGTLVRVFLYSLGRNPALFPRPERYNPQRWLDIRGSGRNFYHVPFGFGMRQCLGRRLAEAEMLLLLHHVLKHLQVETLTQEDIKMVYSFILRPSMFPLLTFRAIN
REPORTED_METRIC: pIC50
To interpret pIC50, take it as minus log10 of a concentration measured in moles per litre.

Worked cases, pIC50 given:
1) COc1ccc2cc(-c3cccnc3)ccc2c1Cl : 5.60
2) c1cncc(-c2cc3ccccc3c3ccccc23)c1 : 5.12
3) COc1ccc2c(Cl)c(-c3cccnc3)ccc2c1Cl : 5.31
4) Brc1ccc2cc(-c3cccnc3)ccc2c1 : 5.53
5) COc1cc2ccccc2cc1-n1ccnc1 : 7.09
6) c1ccc2ncc(-n3ccnc3)cc2c1 : 5.20

Now consider a different molecule.
**Query** Please tell me: pIC50 of `c1ccc2cc(-n3ccnc3)ccc2c1` , system Cytochrome P450 11B1, mitochondrial (Homo sapiens)?
**Result** 5.88
